- measured on: human ClpP (recombinant WT) (Homo sapiens)
- Sequence (Q16740 57-277): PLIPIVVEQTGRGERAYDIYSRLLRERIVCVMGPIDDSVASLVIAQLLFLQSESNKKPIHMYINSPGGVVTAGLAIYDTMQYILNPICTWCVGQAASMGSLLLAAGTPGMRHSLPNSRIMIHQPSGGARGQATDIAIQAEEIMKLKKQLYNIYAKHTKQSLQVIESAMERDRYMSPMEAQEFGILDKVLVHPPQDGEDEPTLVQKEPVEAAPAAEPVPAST
- test: ClpP Ac-Phe-hArg-Leu-ACC fluorogenic peptide cleavage assay
- Type: biochemical
- run conditions: read-out: EC50, ClpP cleavage of Ac-Phe-hArg-Leu-ACC; without ClpX
observed property: EC50 (nM)
Could you give me the number in nM? Just the number is fine.

Consider O=C1C2=C(CCN(Cc3ccccc3)C2)N2CCN=C2N1Cc1ccc(C(F)(F)F)cc1 [ONC212] . Its measured EC50 is 370
